Target: recombinant human GR (Homo sapiens, UniProt P04150)
Sequence (P04150 1-777): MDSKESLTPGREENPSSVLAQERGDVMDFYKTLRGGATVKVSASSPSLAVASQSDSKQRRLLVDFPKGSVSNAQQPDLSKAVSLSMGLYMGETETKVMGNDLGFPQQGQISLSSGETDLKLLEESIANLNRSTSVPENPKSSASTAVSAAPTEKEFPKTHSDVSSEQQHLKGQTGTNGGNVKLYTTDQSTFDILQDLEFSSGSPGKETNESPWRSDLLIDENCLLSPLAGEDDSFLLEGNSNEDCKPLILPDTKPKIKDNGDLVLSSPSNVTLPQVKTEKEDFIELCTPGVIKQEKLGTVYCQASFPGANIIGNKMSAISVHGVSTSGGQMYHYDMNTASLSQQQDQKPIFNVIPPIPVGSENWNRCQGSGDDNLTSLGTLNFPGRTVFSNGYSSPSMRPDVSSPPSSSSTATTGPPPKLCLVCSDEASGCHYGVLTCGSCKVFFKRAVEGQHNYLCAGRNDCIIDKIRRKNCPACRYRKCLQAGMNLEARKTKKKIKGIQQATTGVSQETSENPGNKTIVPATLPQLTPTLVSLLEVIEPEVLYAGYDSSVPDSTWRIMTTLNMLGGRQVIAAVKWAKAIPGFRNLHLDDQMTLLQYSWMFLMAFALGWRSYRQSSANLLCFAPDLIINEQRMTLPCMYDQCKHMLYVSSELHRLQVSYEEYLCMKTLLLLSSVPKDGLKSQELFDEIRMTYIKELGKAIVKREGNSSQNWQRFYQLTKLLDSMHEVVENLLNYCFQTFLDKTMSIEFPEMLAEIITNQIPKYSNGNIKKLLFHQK
Test: Human Glucocorticoid Receptor (GR) Assay, fluorescence polarization
Conditions: GS Red tracer, 2 hours at room temperature
property: IC50 (nM)

Example entries begin here.
- chemical structure: "Cc1onc(-c2ccccc2)c1CNS(=O)(=O)c1ccc(-c2ccccc2)cc1"
  IC50 / nM: 370
- chemical structure: "COc1cc(C)c(S(=O)(=O)NCc2ccc(-c3ccc(Cl)cc3)s2)c(C)c1C"
  IC50 / nM: 330
- chemical structure: "Cc1nn(C(F)F)c(C)c1S(=O)(=O)Nc1cccc(CCc2ccccn2)c1"
  IC50 / nM: 810

a = Cc1cc(S(=O)(=O)Nc2cccc(CCc3ccccn3)c2)c(C)o1
b = Cc1onc(-c2ccccc2)c1CNS(=O)(=O)c1ccc(-c2ccc(F)cc2)cc1
c = O=S(=O)(Nc1cccc(CCc2ccccn2)c1)c1ccc(-c2ccccn2)s1
Task for the reader: rank each entry by its IC50, from the minimum upward. Response format: the labels, sorted as the prompt asks.
b, c, a
(b: 35 nM, c: 200 nM, a: 710 nM)

Values were extracted from patent US20110130426A1.
